# protocol_details: Components of the Cytosolic LPS Sensing Pathway: Gene Identification via Genome-wide siRNA Screen;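 further: robust z of the log signal after scaling to non-targeting control siRNA wells of the plate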
# setup_conditions: RAW264.7 macrophages, IL-1a HTRF, actives lie on both sides, screened at 100 nM (by protocol), cells primed 5 h with Pam3CSK4 first
In all, about 53,000 sequences went through this assay and about 3,700 (7%) were called active.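 How the source made its calls: active means gene knockdowns whose robust z-score for IL-1 alpha signal is at least 2 or at most -2, so actives lie on both sides; inactive means the rest.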 The entries come from a sample that favours actives as a whole.
Classes used: 1 for active, -1 for inactive

* GGCCAUUAAAUUUAUCAACTT against Aldh3a1 | -1
* GGUCGACAGUUAAAAUGAUTT against Bpifc | -1
* GGGUUCUGCAUGUUGAUUCTT against Chm | -1
* CCUAUGUCACUAAGGCACGTT against Nudt13 | -1
* GCAUUUAGAAGAAUCCGCCTT against Hao2 | 1
* GGUCAAUGGAGUAGAUUUATT against Pard3 | 1
* GGAUCUUGAUAGACUGAUGTT against Rhox5 | -1
* CCAGAAUUGAACUUCAAGUTT against 2610008E11Rik | -1
* GGGCAUUGUUGUUUCUAUUTT against Lhfp | -1
* CGUGUGAAGAAAAUUGAUGTT against Mmp27 | -1
* GGCUCUCAGUGCCAUCAUUTT against Stk40 | -1
* GCAGGUUAUGGUCAUAUUUTT against Zfp646 | -1
* GGUGAUGAUGUCCAGAAGUTT against Kdm4d | -1
* GGUCUGGUGGAGUUGAGAATT against Ccdc80 | -1
* UCAACUGCUUAGAGCAUGUTT against Tmem259 | -1
* GGUCUACCAUGACACACGUTT against Prrg2 | -1
* GGCCACCAAGACCAAUGAUTT against Akap8 | -1
* GGUUCUAAAACUUAACAAGTT against Brf2 | 1
* CCAUACACAACAUUCCAGATT against Slc39a11 | -1
* GGUGCUACCUCUAGAUAUUTT against Utp3 | -1
* GUACGGCAACAUGACCCAGTT against Cd74 | -1
* GGAAGAUACGUGCAAAAUGTT against Rbms2 | -1
* GCUAGUGUGAUACCAUUUATT against Nab1 | -1
* CGAUACAGGACCGAAGGAGTT against Fhad1 | -1
* CCUUAUAGCAUAAGCUUUATT against Olfr768 | 1
* CGAUGCUGUUCUUCAAUGUTT against Krt222 | -1
* GCAAGUAGAAACCCUUAAUTT against Scara5 | -1
* CCAAUGAUAGACUUUAUACTT against Adgrv1 | -1
* CGACUACCAACAGUUCAUATT against P2rx6 | -1
* GCUGUGAUCUCAGUAUUCATT against Strbp | -1

###

# protocol_details: Components of the Cytosolic LPS Sensing Pathway: Gene Identification via Genome-wide siRNA Screen;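 further: robust z of the log signal after scaling to non-targeting control siRNA wells of the plate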
# setup_conditions: RAW264.7 macrophages, IL-1a HTRF, actives lie on both sides, screened at 100 nM (by protocol), cells primed 5 h with Pam3CSK4 first
Hit rate of the full screen: of about 53,000 sequences, about 3,700 (7%) were called active.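 How the source made its calls: active means gene knockdowns whose robust z-score for IL-1 alpha signal is at least 2 or at most -2, so actives lie on both sides; inactive means the rest.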 Shown is part of a subset that was picked to be rich in actives.
Classes used: true (1) (active), false (0) (inactive)

• GCGGUUUGUCUUCAACAAGTT against Il1b = false (0)
• CCUUCUAGUUUGCCUCUGGTT against Olfr877 = false (0)
• CGGAAUGCCAAAGAUGUGGTT against Sult1d1 = false (0)
• GGAACAAGGCUUUUUCCACTT against Olfr481 = false (0)
• GGGCUUUCACACAAUCCCUTT against Kcns1 = false (0)
• GGCCAUUUCUUUCAUAGAUTT against Dusp6 = false (0)
• CCGCGUGUGCUCCUUUUUGTT against Zcchc3 = false (0)
• GGUAACUGUUACACAAAUCTT against Tmem161b = false (0)
• GGAAUGGGAUUACACCUACTT against Mymk = true (1)
• CGGAUGCGACAAAAAUCACTT against Il4 = false (0)
• GGUUUUGAAAAAGCAUCAATT against Myoz2 = false (0)
• GCUGGUCAAGGGUCUAGAGTT against Saa3 = true (1)
• GCCAUGAUGACUAACCUUATT against Dbpht2 = false (0)
• GGUGGCAGACAUUUCAACATT against Ifi27 = false (0)
• GAGACAUCCUCUUCACCAUTT against Olfr495 = false (0)
• CCUGUAAGAACCUUGCCUATT against Sytl3 = false (0)
• GCCUUCCACUACCUUACGUTT against Kcnk3 = false (0)
• CAGUUUUUGGUCUCUAUCUTT against Olfr113 = true (1)
• GCUGUACUAUCUUUUUCAUTT against Olfr165 = false (0)
• GGAACAGAUGGGUGUGAAATT against Wnt2b = false (0)
• GGAAGAUUGAAAUAGGCGATT against Mecom = false (0)
• GCAUGAUCUCAGGUGUUUGTT against Timm13 = false (0)
• GGGAGCAGAUUGAAACAGUTT against Eri2 = false (0)
• GGAAAUUCUGGCAUAAAUUTT against Cd86 = false (0)
• GCAACAAUGAGAGACCACATT against Htr5a = true (1)
• CCAUUCCUUAAAAGAGCAUTT against Lce1g = false (0)
• GGCAUAGAAGAGAUGACAGTT against Fabp7 = true (1)
• GCCAUACGAUCUGCAUUUCTT against Zbtb38 = false (0)
• GCGUAAGCAGCAAGAUGGATT against Ash2l = false (0)
• CCAGUCACUAUUUGAGUGUTT against Erg = false (0)
• UCCCUAACGGCCCUUUUUATT against H4c14 = false (0)
• GGUCCAUACAAGUGUUUGATT against Camk2b = false (0)
• CGCUCUAGGAAAACAAUGUTT against Klb = false (0)
• GUCCCACUCAGGAGAAUUUTT against Lrrc61 = false (0)
• GGUAACCUAGUGUAAGUUUTT against Atg2b = false (0)
• GGAAUCAACUUGGUGGCUCTT against Rxrg = false (0)

###

# protocol_details: Components of the Cytosolic LPS Sensing Pathway: Gene Identification via Genome-wide siRNA Screen;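 further: robust z of the log signal after scaling to non-targeting control siRNA wells of the plate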
# setup_conditions: RAW264.7 macrophages, IL-1a HTRF, actives lie on both sides, screened at 100 nM (by protocol), cells primed 5 h with Pam3CSK4 first
Screen size: about 53,000 sequences; about 3,700 (7%) were called active.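 How the source made its calls: active means gene knockdowns whose robust z-score for IL-1 alpha signal is at least 2 or at most -2, so actives lie on both sides; inactive means the rest.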 Only a selection was taken, and actives are over-represented in it overall.
Outcome codes: active, inactive

* GGCUUUUAUAGCUAAGGUUTT against Spc25 | active
* GGUAAUGGAAAUGAACAAATT against Zfp353-ps | inactive
* GGUCCCAGACUGAGUGAAATT against Epo | inactive
* GGACCUUGUACCCAUUCCUTT against Prr5 | inactive
* GCACGAGAGACAUUUCUCCTT against Kat7 | active
* GGAUUUAGCCAUGGAUUUCTT against Zfp473 | inactive
* GGACCACGCAAAAGAAUAUTT against Mtss1 | inactive
* GGCACUGUAGACAAACUCUTT against Stxbp1 | inactive
* ACAUUUAUCACGACCCUUCTT against Olfr777 | inactive
* GCGAACUCGGGAAACAACUTT against Rnf4 | inactive
* GCGAUAUUUCAAGAGAAGCTT against Evc2 | inactive
* GGACUGAGAACCAAAGCUGTT against D630044L22Rik | active
* CCGUAUGAACGUGUGAUAATT against Rasef | inactive
* GGGUUUCUUCGUGUCUAUUTT against Pth2r | inactive
* GCGGUUAGCACAAUGUGAATT against Ppp2cb | inactive
* GGAUACCAUCCUAGGCCUGTT against Ephx3 | inactive
* GGAAAAGAAAGCAAAGAGATT against Dach1 | inactive
* CGACAGUUACUUGCCCAGATT against Rasgrp3 | inactive
* GGAGAUCAUGCUCAAGAACTT against Dgke | inactive
* GCUUUAUCCACAGGUGCCATT against Olfr1350 | inactive
* AUAGUGGAACCCUUUGUACTT against Olfr1195 | inactive
* CGCAGUGAUUAUGACCUCCTT against Thegl | active
* GGUCUCUUUCAUGCUCGCATT against Agr3 | active
* GGAAACCCAAUAUCAAACUTT against Rnf138 | inactive
* GGAGCUUAGCCUCUGUAUGTT against Gatd3a | inactive
* GCAUCCUACUUCUCAACUUTT against Ceacam12 | inactive
* GCUCGAGGCUUAGAAGACUTT against Hspb3 | active
* GGUAUGCAUGAACAUAAUGTT against Prl7c1 | inactive
* GGUGAACGACUCCAUGUAUTT against Nectin1 | inactive
* GGCCCAAGGAAUAAUCAAGTT against Satb2 | active
* GCACAACAUCCCAGAUAAATT against Ankrd55 | inactive
* GCAUAUAACCGAGUUGAUUTT against Cdcp1 | inactive
* UUGGUUCAACCUCAUCAUATT against Olfr869 | active
